FYI, the data here is from patent US11787785B2.

# SYSTEM TESTED: WIZ protein (HiBit-WIZ fusion protein) (Homo sapiens, UniProt O95785+Q96SW2)
# Construct: expressed in transfected cells
# Sequence (O95785 whole entry, the tested form may be a part): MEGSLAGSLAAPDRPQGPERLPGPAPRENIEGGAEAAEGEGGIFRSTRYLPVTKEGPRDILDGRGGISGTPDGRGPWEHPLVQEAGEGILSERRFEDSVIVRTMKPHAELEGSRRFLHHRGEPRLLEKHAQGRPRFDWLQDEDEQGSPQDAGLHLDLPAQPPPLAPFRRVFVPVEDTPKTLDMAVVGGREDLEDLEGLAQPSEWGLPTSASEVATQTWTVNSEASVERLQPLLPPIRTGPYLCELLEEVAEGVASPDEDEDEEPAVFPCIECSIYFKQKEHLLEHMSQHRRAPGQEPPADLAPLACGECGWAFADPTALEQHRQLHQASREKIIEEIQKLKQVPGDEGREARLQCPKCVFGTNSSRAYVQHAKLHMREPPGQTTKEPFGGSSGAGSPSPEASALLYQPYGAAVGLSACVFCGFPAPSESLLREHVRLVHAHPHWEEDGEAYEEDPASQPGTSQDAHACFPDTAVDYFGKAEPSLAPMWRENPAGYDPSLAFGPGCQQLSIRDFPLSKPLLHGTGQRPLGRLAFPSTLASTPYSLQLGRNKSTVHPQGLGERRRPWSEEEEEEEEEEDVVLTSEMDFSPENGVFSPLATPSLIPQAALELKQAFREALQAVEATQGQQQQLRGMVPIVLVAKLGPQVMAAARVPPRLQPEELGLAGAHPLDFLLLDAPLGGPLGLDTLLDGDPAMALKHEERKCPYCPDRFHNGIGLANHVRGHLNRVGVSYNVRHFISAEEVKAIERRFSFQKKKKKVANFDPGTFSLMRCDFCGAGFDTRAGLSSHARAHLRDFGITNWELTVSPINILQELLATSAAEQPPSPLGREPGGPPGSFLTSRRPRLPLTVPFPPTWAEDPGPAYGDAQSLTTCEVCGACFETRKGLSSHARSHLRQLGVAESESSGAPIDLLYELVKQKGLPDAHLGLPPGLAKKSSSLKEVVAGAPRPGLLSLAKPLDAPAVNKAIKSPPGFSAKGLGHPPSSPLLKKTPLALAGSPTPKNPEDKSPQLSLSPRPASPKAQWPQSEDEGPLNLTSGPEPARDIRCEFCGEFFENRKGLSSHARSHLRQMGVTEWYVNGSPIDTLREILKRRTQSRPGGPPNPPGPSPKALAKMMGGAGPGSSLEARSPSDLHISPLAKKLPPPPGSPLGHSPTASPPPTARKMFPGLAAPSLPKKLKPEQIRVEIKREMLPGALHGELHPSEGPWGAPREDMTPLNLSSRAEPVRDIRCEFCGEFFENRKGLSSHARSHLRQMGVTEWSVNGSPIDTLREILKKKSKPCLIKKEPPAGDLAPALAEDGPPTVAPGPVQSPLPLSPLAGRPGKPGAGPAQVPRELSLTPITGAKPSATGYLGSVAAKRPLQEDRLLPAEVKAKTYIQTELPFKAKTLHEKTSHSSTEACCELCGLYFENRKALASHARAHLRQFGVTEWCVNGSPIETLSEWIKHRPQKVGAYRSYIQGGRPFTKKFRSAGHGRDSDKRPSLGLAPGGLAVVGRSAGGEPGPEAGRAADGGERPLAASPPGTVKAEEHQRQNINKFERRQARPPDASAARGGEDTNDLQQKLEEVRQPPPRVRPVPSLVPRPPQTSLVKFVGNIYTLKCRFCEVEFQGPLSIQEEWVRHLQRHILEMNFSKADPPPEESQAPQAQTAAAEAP
# Sequence (Q96SW2 whole entry, the tested form may be a part): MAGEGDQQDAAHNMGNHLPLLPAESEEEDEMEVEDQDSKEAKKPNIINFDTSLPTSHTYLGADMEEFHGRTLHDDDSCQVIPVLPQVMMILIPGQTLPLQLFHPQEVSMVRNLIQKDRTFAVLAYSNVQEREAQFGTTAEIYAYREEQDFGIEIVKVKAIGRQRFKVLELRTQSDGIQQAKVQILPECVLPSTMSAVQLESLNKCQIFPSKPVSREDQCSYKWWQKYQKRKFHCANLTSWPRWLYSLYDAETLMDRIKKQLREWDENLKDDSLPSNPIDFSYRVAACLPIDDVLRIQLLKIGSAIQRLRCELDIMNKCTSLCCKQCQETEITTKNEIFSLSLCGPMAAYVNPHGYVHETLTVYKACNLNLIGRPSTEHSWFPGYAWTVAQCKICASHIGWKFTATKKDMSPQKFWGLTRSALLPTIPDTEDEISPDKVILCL
# Sequence (Q16531 whole entry partner, the tested form may be a part): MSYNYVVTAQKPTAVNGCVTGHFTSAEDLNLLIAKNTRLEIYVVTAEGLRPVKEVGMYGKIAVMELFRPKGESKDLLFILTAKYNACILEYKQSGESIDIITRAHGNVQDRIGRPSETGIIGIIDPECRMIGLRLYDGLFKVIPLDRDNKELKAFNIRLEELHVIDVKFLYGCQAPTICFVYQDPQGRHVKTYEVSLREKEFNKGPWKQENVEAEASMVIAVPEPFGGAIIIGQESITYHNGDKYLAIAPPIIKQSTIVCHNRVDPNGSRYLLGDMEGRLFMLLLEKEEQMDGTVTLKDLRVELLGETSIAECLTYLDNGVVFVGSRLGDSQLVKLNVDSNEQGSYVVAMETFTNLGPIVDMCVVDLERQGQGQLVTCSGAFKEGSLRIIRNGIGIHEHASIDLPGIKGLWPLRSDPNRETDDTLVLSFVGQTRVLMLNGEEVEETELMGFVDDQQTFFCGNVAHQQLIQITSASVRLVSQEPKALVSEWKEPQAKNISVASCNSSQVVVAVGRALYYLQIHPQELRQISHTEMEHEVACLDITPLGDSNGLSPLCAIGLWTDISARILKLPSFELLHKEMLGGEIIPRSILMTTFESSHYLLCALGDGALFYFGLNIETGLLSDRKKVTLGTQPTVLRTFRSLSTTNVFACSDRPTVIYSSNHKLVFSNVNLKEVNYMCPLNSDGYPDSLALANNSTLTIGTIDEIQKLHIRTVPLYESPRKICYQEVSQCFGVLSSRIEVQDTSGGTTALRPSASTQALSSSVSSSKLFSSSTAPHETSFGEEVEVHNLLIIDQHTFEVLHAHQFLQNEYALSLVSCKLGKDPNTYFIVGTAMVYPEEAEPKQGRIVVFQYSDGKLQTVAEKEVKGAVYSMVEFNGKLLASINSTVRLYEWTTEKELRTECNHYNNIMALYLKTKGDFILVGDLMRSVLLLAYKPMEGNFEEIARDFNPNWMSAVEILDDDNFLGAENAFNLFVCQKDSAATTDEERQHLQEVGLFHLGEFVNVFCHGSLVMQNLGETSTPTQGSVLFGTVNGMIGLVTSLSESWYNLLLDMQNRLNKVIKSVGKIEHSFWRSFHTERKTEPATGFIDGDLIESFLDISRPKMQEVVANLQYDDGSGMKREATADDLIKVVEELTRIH
# METHOD DESCRIPTION: Quantification of WIZ protein levels in HiBit tag fusion protein assay (WIZ HiBit assay in 293T cells)
# Assay type: cell-based
# CONDITION CONTEXT: WIZ HiBit assay in 293T cells; 10-point, 5-fold dose response, highest concentration 25 μM, about 18 hours; read-out: WIZ AC50
REPORTED PROPERTY: DC50 (µM)

(a) O=C1CCN(c2cnn3ccc(CN4CCN(CC5CCOCC5)CC4)cc23)C(=O)N1
(b) O=C1CCN(c2cnn3ccc(CC4CCN(C(=O)C5(C(F)(F)F)CC5)CC4)cc23)C(=O)N1
(c) CCS(=O)(=O)N1CC[C@@H](Cc2ccn3ncc(-n4ccc(=O)[nH]c4=O)c3c2)C[C@@H]1C
(d) COCC(F)(F)CN1CCN(Cc2ccn3ncc(N4CCC(=O)NC4=O)c3c2)C[C@@H]1C
Enquiry: Task for the reader: rank each entry by its DC50, from the minimum upward. Give your ranking as a list of the labels in the requested order.
Return: a, c, d, b

----------
# SYSTEM TESTED: WIZ protein (HiBit-WIZ fusion protein) (Homo sapiens, UniProt O95785+Q96SW2)
# Construct: expressed in transfected cells
# METHOD DESCRIPTION: Quantification of WIZ protein levels in HiBit tag fusion protein assay (WIZ HiBit assay in 293T cells)
# Assay type: cell-based
# CONDITION CONTEXT: HEK-293T, DMSO-normalized, curve-fitted percentage of WIZ-HiBit remaining at 25 uM; 293T cells; read-out: WIZ Amax
REPORTED PROPERTY: remaining activity at 25 µM (%)

C[C@H]1CN(Cc2ccn3ncc(N4CCC(=O)NC4=O)c3c2)CCN1CC1CCO1 (stereo partly shown) [Example 324]
28
O=C1CCN(c2cnn3ccc(CC4CCN(CC5CCOCC5)CC4)cc23)C(=O)N1 [Example 3]
10
COC[C@H]1CN(Cc2ccn3ncc(N4CCC(=O)NC4=O)c3c2)CCN1CC1CCCCC1 [Example 244]
47

(A) C[C@H]1CN(CC2CCCCC2)CCN1Cc1ccn2ncc(N3CCC(=O)NC3=O)c2c1 [Example 221]
(B) CO[C@H]1CC[C@H](CN2CCN(Cc3ccn4ncc(N5CCC(=O)NC5=O)c4c3)C[C@@H]2C)CC1 [Example 210]
(C) O=C1CCN(c2cnn3ccc(CC4CCCN(CC5CCCCC5)CC4)cc23)C(=O)N1 (stereo not shown) [Example 272]
(D) CC(C)CN1CC[C@@H](Cc2ccn3ncc(-n4cc(C5CC5)c(=O)[nH]c4=O)c3c2)C[C@@H]1C [Example 354]
Enquiry: Arrange the 4 entries by remaining activity at 25 µM so the values rise. Give your ranking as a list of the labels in the requested order.
Return: B, C, A, D

----------
# SYSTEM TESTED: WIZ protein (HiBit-WIZ fusion protein) (Homo sapiens, UniProt O95785+Q96SW2)
# Construct: expressed in transfected cells
# METHOD DESCRIPTION: Quantification of WIZ protein levels in HiBit tag fusion protein assay (WIZ HiBit assay in 293T cells)
# Type: cell-based
# CONDITION CONTEXT: HEK-293T, 100 − Amax, at 25 uM; 293T cells; read-out: % degradation of WIZ (100 − Amax)
REPORTED PROPERTY: Dmax at 25 µM (%)

Past entries and their recorded results:
Cc1ccccc1CN1CCC(Cc2ccn3ncc(N4CCC(=O)NC4=O)c3c2)CC1
70
O=C1CCN(c2cnn3ccc(CC4CCN(CC5CCCO5)CC4)cc23)C(=O)N1 (stereo not shown)
71
C[C@H]1C[C@H](Cc2ccn3ncc(N4CCC(=O)NC4=O)c3c2)CCN1C(=O)C1CCC1
79
O=C1CCN(c2cnn3ccc(CC4CCN(Cc5ccc(F)c(F)c5)CC4)cc23)C(=O)N1
70
CC(C)(CN1CCN(Cc2ccn3ncc(N4CCC(=O)NC4=O)c3c2)CC1)C(F)(F)F
44

(A) O=C1CCN(c2cnn3ccc(CC4CCN(CC5CCCC5)CC4)cc23)C(=O)N1
(B) CC1(C)CN(Cc2ccn3ncc(N4CCC(=O)NC4=O)c3c2)CCN1CC1CCOCC1
Enquiry: Consider A and B . Which of these has its Dmax at 25 µM at a higher number? Use the label to indicate which entry you chose.
Return: A

----------
# SYSTEM TESTED: WIZ protein (HiBit-WIZ fusion protein) (Homo sapiens, UniProt O95785+Q96SW2)
# Construct: expressed in transfected cells
# METHOD DESCRIPTION: Quantification of WIZ protein levels in HiBit tag fusion protein assay (WIZ HiBit assay in 293T cells)
# Format: cell-based
# CONDITION CONTEXT: WIZ HiBit assay in 293T cells; 10-point, 5-fold dose response, highest concentration 25 μM, about 18 hours; read-out: WIZ AC50
REPORTED PROPERTY: DC50 (nM)

Cc1ccccc1CN1CCC(Cc2ccn3ncc(N4CCC(=O)NC4=O)c3c2)CC1
27

(1) O=C1CCN(c2cnn3ccc(CC4CCN(Cc5nccs5)CC4)cc23)C(=O)N1
(2) O=C1CCN(c2cnn3ccc(CC4CCN(CC5CC(F)(F)C5)CC4)cc23)C(=O)N1
Enquiry: Which gives the smaller DC50 number: 1 or 2 ? Use the label to indicate which entry you chose.
Return: 2

(a) O=C1CCN(c2cnn3ccc(CC4CCN(C5COC5)CC4)cc23)C(=O)N1
(b) C[C@@H]1CN(CC2CCOCC2)CCN1Cc1ccn2ncc(N3CCC(=O)NC3=O)c2c1
(c) CC(C)CCN1CCC(Cc2ccn3ncc(N4CCC(=O)NC4=O)c3c2)CC1
(d) Cc1cccc(CN2CCN(Cc3ccn4ncc(N5CCC(=O)NC5=O)c4c3)CC2)c1
Enquiry: Arrange the 4 entries by DC50 so the values rise. Give your ranking as a list of the labels in the requested order.
Return: a, c, d, b

(A) C[C@H]1CN(Cc2ccn3ncc(N4CCC(=O)NC4=O)c3c2)CCN1C[C@@H]1CCC(F)(F)C1
(B) O=C1CCN(c2cnn3ccc(CC4CCN(Cc5cccc(F)c5)C4)cc23)C(=O)N1 (stereo not drawn)
(C) CC(C)C(C)N1CCC(Cc2ccn3ncc(N4CCC(=O)NC4=O)c3c2)CC1 (stereo not drawn)
(D) C[C@H]1C[C@H](Cc2ccn3ncc(-n4cc(Cl)c(=O)[nH]c4=O)c3c2)CCN1CC1CCC(F)(F)CC1
Enquiry: Arrange the 4 entries by DC50 so the values rise. Give your ranking as a list of the labels in the requested order.
Return: A, C, D, B

(1) C[C@H]1CN(Cc2ccn3ncc(N4CCC(=O)NC4=O)c3c2)CCN1C[C@H]1CC[C@H](C(F)(F)F)CC1
(2) O=C1CCN(c2cnn3ccc(CN4CCN(Cc5cscn5)CC4)cc23)C(=O)N1
Enquiry: Consider 1 and 2 . Which of these has its DC50 at a higher number? Use the label to indicate which entry you chose.
Return: 2
(2: 1140 nM, 1: 4 nM)

(1) C[C@H]1CN(Cc2ccn3ncc(N4CCC(=O)NC4=O)c3c2)CCN1CC1CC1
(2) CC(c1ccccc1)N1CCC(Cc2ccn3ncc(N4CCC(=O)NC4=O)c3c2)CC1 (stereo not drawn)
(3) C[C@H]1C[C@H](Cc2ccn3ncc(N4CCC(=O)NC4=O)c3c2)CCN1C[C@H]1CC[C@H](C(F)(F)F)CC1
Enquiry: Arrange the 3 entries by DC50 so the values rise. Give your ranking as a list of the labels in the requested order.
Return: 3, 1, 2
(3: 2 nM, 1: 67 nM, 2: 297 nM)

(I) O=C1CCN(c2cnn3ccc(CN4C[C@@H]5C[C@H]4CN5CC4CCCCC4)cc23)C(=O)N1
(II) O=C1CCN(c2cnn3ccc(CC4CCN(CC(=O)N5CCCCC5)CC4)cc23)C(=O)N1
Enquiry: Consider I and II . Which of these has its DC50 at a higher number? Use the label to indicate which entry you chose.
Return: I
(I: 3200 nM, II: 987 nM)

----------
# SYSTEM TESTED: WIZ protein (HiBit-WIZ fusion protein) (Homo sapiens, UniProt O95785+Q96SW2)
# Construct: expressed in transfected cells
# METHOD DESCRIPTION: Quantification of WIZ protein levels in HiBit tag fusion protein assay (WIZ HiBit assay in 293T cells)
# Type: cell-based
# CONDITION CONTEXT: HEK-293T, 100 − Amax, at 25 uM; 293T cells; read-out: % degradation of WIZ (100 − Amax)
REPORTED PROPERTY: Dmax at 25 µM (%)

CC(C)S(=O)(=O)N1C[C@H]2C[C@@H]1CN2Cc1ccn2ncc(N3CCC(=O)NC3=O)c2c1 [Example 239]
0
C[C@H]1C[C@H](Cc2ccn3ncc(N4CCC(=O)NC4=O)c3c2)CCN1CC1CCCC1 [Example 144]
87
O=C1CCN(c2cnn3ccc(CC4C[C@H]5CC[C@@H](C4)N5CC4CCCCC4)cc23)C(=O)N1 (some centres unmarked) [Example 66]
72

(A) O=C1CCN(c2cnn3ccc(CN4CCN(CC5CCCCC5)C(=O)C4)cc23)C(=O)N1 [Example 242]
(B) Cc1cn(-c2cnn3ccc(C[C@@H]4CCN(CC5CCC(F)(F)CC5)[C@@H](C)C4)cc23)c(=O)[nH]c1=O [Example 351]
Enquiry: Which gives the smaller Dmax at 25 µM number: A or B ? Use the label to indicate which entry you chose.
Return: A
(A: 7%, B: 91%)
